Reference source for all entries: PubChem BioAssay (NCI)

# Test system: TK-10 renal
# Method Summary: NCI tumour cell line growth inhibition, 48 h
Kindly supply the reported TGI values for the records listed here.

Prompt: Request body: readout TGI, system TK-10 renal, query CCC(=O)c1c(C(F)(F)F)n([O-])c2cc(F)c(F)cc2[n+]1=O . Return the value.
Completion: 2.39 µM

Prompt: Request: Fc1cccc(F)c1C1SCc2nc3ccc(Cl)cc3n21 (stereo not given)
Completion: > 100 µM

Prompt: Request: CC(=O)N(O)c1ccc(-c2nc3ccccc3s2)cc1
Completion: > 100 µM

Prompt: Request: Cn1nc(-c2ccccc2)c2c(/C=C/c3ccccc3)onc2c1=O
Completion: > 100 µM

Prompt: Request: CC(=O)O[C@H]1CC[C@@]2(C)C(=CC[C@@H]3C2CC[C@]2(C)Nc4nc5ccccc5cc4CC32)C1 (stereo not given in full)
Completion: 18.1 µM

Prompt: Request: Clc1ccc(OCc2nn3c(CCc4nnc5sc(COc6ccc(Cl)cc6)nn45)nnc3s2)cc1
Completion: 80.7 µM

Prompt: Request: O=C(OCC(Cl)(Cl)Cl)O[C@@H]1CCCC1(c1ccccc1)c1ccccc1
Completion: > 100 µM

Prompt: Request: O=c1cnn(CCOCP(=O)(O)O)c(=O)[nH]1
Completion: > 100 µM

Prompt: Request: CCOC(=O)C1=C(C)N(c2ccc(OC)cc2)C2(O)C=CC(=O)C3=C(O)c4ccccc4C(=O)C312 (stereo not given)
Completion: 27.4 µM

Prompt: Request: CCOc1ccc(NC(=O)CC2C(=O)Nc3ccccc3S2(=O)=O)cc1 (stereo not given)
Completion: > 100 µM

Prompt: Request: CN(C)c1cccc(NC2=NCCO2)c1
Completion: > 100 µM

Prompt: Request: C=CCc1cc(OC)c2c(c1)C(OC)CC(c1ccc(OC)c(OC)c1)O2 (stereo not given)
Completion: > 100 µM

Prompt: Request: COC(=O)c1ccc(Nc2nc3nc[nH]c3c(=O)[nH]2)cc1
Completion: > 100 µM

Prompt: Request: N#CC1c2ccccc2C=CN1C(=O)N(c1ccccc1)c1ccccc1 (stereo not given)
Completion: 3.58 µM

Prompt: Request: COc1ccc(C(C2=C(O)COC2=O)c2cc3c(cc2O)OCO3)cc1OC (stereo not given)
Completion: > 100 µM

----------
Kindly supply the reported TGI values for the records listed here.
# Tested on: SN12C renal
# Method Summary: NCI tumour cell line growth inhibition, 48 h
Return type: number; implicit unit µM.

Prompt: Reported TGI for CN(CC(=O)N(Cc1ccc(C2CCCCC2)cc1)c1ccc(C(=O)O)cc1)S(=O)(=O)c1c(F)c(F)c(F)c(F)c1F : what is it?
Completion: 4.88

Prompt: Request: CC(=O)[CH-]C(=O)c1ccccc1.CC(=O)[CH-]C(=O)c1ccccc1.C[C@]12CCC(=O)C=C1CC[C@@H]1C2CC[C@@]2(C)C1CC[C@]2(C)[O-].C[C@]12CCC(=O)C=C1CC[C@@H]1C2CC[C@@]2(C)C1CC[C@]2(C)[O-].Cl.[Ti+4] (some centres undefined)
Completion: 49.5

Prompt: Request: CN(C)/N=C1\CC(c2ccccc2)C(C#N)(C#N)C1(C#N)C#N (centres undefined)
Completion: 36.9

Prompt: Request: O=C1c2ccccc2C(=O)c2c(OCCOCCO)cccc21
Completion: 8.08

Prompt: Request: CN(CCCNC(=O)CCOCCOCCOCCNC(=O)Cc1ccc2ccc3cccc4ccc1c2c34)CCCNc1cc(-c2ccc3ccccc3c2)nc2ccccc12
Completion: 8.44

Prompt: Request: Cc1cc(=O)[nH]c(NN2C(Cl)C(=O)C2c2cccc(Cl)c2)n1 (centres undefined)
Completion: 62

Prompt: Request: O=C(NC(=S)NC(=O)c1cc(O)c(O)c(O)c1)c1cc(O)c(O)c(O)c1
Completion: 53.7

Prompt: Request: O=C1NC(=NCCCc2ccccc2)S/C1=C\c1ccc2ncccc2c1
Completion: 20.9
